Entries and their koff
System: T1, recombinant human soluble gpNMB (recombinant human gpNMB-FLAG-His) (human, UniProt Q14956 23-498)
T1 sequence: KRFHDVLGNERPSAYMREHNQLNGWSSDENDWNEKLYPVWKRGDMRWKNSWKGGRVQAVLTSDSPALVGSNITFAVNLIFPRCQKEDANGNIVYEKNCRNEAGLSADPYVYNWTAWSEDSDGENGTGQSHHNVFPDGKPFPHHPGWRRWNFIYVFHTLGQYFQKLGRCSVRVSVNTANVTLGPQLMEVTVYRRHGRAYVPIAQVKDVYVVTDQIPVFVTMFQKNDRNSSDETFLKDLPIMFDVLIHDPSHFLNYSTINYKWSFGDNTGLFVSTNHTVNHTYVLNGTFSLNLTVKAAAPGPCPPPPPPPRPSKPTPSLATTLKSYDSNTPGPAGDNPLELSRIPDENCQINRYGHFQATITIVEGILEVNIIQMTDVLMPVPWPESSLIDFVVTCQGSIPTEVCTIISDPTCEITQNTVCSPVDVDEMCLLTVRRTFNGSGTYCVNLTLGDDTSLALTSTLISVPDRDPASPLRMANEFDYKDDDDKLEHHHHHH
Measurement notes: SPR, antibody 100 nM over captured gpNMB-FLAG-His, 25C
Measured attribute: koff (s⁻¹)

# Binder, Observed result
rows = [
    ("GPN18-7 (antibody, V domains shown, monoclonal with mouse IgG constant regions) VH: QVTLKESGPGILQPSQTLSLTCSFSGFSLSTSVMGVGWIRQPSGKGLEWLADIWWDDDKDYNPSLKSRLTISKDTSKNQVFLKIASVDTADTATYYCARAYYSNFEYYGMDYWGQGTSVTVSS VL: DVLMTQIPLSLPVSLGDQASISCRSSQTIVHSNGNTYLEWYLQKPGQSPKLLIYKVSNRFSGVPDRFSGSGSGTDFTLKISRVEAEDLGVYYCFQGSHVPFTFGSGTKLEIK", 0.00059),
    ("GPN18-5 (antibody, V domains shown, monoclonal with mouse IgG constant regions) VH: QVQLQQSGAELAKPGTSVKMSCKASGYTFTTYWMNWVKQRPGQDLEWIGAINPSNDYTEYNQKFKDKAILTADKSSNTAYMQLSSLTSEDSAVYYCGRSYSPDYWGQGTTLTVSS VL: DIVMTQSQKFMSTSVGDRVSVTCKASQNVDNHVAWHQQKPGQSPKALIYSASYRYSGVPDRFTGSGSGTDFTLTIRDVQSEDLADYFCQQYKSYPFTFGSGTELEIK", 0.0003),
    ("GPN18-4 (antibody, V domains shown, monoclonal with mouse IgG constant regions) VH: QVQLQQSGAELTKPGTSVKMSCKASGYTLSSYWMNWIKQRPGQGLEWIGTINPSNNYTAYNLKFKDKAMLTADKSSSTAYMQLSSLTSEDSAVYYCATWGYWGQGTTLTVSS VL: DIVMTQSHKFMSTSVGDRVSITCKASQDVSTAVAWHQQKPGQPPKLLIYSASYRYTGVPDRFTGSGSGTDFTFTISSVQTEDLAIYYCQHHYTTTWTFGGGTKLEIR", "1.5e-05"),
]
